Source listed as ChEMBL document CHEMBL3430912.

Recorded pIC50, one value per entry.
Tested on: Leishmania donovani
testProtocol: GSK_TCAKS: pIC50 Leishmania donovani Imaging: THP-1 Host Macrophages. Assay plates (384-well) were prepared by adding 250nL of compound to each well. For single shot assay, the final compound concentration was 5 uM. […] Automated image analysis was performed with a script developed on Acapella High Content Imaging and Analysis Software (PerkinElmer). Output: THP-1 cell count were reported for each well.
Assay type: functional, organism-based, Homo sapiens
pIC50: −log10 of the molar value.
recordedMetric: pIC50

1) O=c1nc(NCCCNCc2cc(Br)cc(Br)c2)[nH]c2ccsc12; 4.80
2) Cc1ccc(S(=O)(=O)Nc2ccc(CN3CCN(C(=O)c4cccc(C)c4)CC3)cc2)cc1; 4.40
3) Cc1cc(NC(=O)CC2CCCCC2)n(-c2nc3c(c(=O)[nH]2)CCC3)n1; 5.40
4) c1ccc(CNc2cccc3ccncc23)cc1; 4.30
5) Cc1cccnc1CN1CCN(CCCOc2ccc(-c3ccc(C(N)=O)cc3)cc2)CC1; 4.90
